# assayedSystem: T1, CGH-1_(248–420) wild type (CGH-1 RecA2 domain) (C. elegans, UniProt Q95YF3 248-420)
# T1 construct: Cloned into NdeI/XhoI of a modified pET-28a in which the thrombin cleavage site was removed; also called CGH-1_248-420^WT; source: E. coli Gold (DE3), purified (Ni-chelating resin, SEC Superdex 75)
# T1 sequence (looked up): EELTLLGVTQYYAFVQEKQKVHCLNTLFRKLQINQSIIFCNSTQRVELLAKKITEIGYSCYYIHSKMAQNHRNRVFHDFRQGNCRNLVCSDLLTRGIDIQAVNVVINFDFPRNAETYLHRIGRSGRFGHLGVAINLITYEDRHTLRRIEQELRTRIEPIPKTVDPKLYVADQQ
# measurementDescription: ITC; ligand (peptide or CAR-1 fragment, 0.5 mM) injected into CGH-1_(248-420) or mutant (0.05 mM) in the cell; 20 °C; Buffer B (20 mM Tris-HCl pH 7.5, 150 mM NaCl); one-binding-site model
# runConditions: both partners purified
valueType: Kd (µM)
// note: answer is a bare numeric in µM

The reported Kd of the binder CAR-1 FDF-TFG (CAR-1_(184–268)) (domain or fragment, C. elegans, UniProt Q9XW17 184-268, looked up, thrombin site of the vector removed; also called CAR-1_184-268^WT; recombinant CAR-1_(184–268) protein; source: recombinant; plasmid in modified pET-28a) LKFESDFDFEKANEKFQEVLVDNLEKLNIEDKAEPEVEEKKDAAFYDKKTSFFDNISCESLEKAEGKTGRPDWKKERETNQETFG was 3.03
